Molecular target: T1, recombinant CML13 (Arabidopsis thaliana, UniProt Q94AZ4 1-148)
T1 sequence: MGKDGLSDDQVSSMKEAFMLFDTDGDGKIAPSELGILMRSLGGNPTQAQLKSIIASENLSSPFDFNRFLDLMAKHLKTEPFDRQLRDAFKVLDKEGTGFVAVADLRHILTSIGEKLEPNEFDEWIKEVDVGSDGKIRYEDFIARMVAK
Experiment: ITC
pKd: −log10 of the molar value.
value-kind: pKd

- binder: "Ac-QHASATKIQGAFRGYMARKSFRALK-NH2 [IQD14-IQ1 synthetic peptide, residues 322-346]"
  value-kind: "pKd"
  readout-value: 6.65
